Measured values drawn from patent US20230406921A1 for this set.

# Target Entity: T1, CD47 on the surface of tumor cells (human, UniProt Q08722 19-323)
# T1 construct: whole, on cells; Same protein as m4; also called CD47 antigen on the surface of U937 and CCRF cells; SKOV-3
# Assay Comment: FACS, tumor cells, 1 nM
Metric: FACS (MFI)
Enter your answer as a number in MFI; do not include the unit.

- Binder: "h140Hm13/h140Lm8 (antibody, V domains shown, also called h140Lmut8; mut8) VH: EVQLVQSGAEVKKPGASVKVSCKASGYKFTNYVMSWVRQAPGQRLEWMGYINPYNDAIKYNEKFTGRVTITRDTSASTAYMELSSLRSEDTAVYYCAREGDFYANYGRLGFAYWGQGTLVTVSS VL: DIQMTQSPSSLSASVGDRVTITCRASQDITNYLNWYQQKPGKAPKLLIYYTSRLHSGVPSRFSGSGSGTDYTFTISSLQPEDIATYFCQQGDTRPYTFGGGTKVEIK"
  Unit Abbrev: "MFI"
  FACS (MFI): 26400
- Binder: "h140Hm13/h140Lm18 (antibody, V domains shown) VH: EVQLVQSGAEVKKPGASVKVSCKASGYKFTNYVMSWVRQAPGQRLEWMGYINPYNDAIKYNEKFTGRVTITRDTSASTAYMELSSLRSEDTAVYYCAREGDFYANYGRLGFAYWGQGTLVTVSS VL: DIQMTQSPSSLSASVGDRVTITCRASQDITNYLNWYQQKPGKAPKLLIYYTSRLQSGVPSRFSGSGSGTDYTFTISSLQPEDIATYFCQQGDTNPYTFGGGTKVEIK"
  Unit Abbrev: "MFI"
  FACS (MFI): 9920
- Binder: "h140Hm13/h140Lm13 (antibody, V domains shown) VH: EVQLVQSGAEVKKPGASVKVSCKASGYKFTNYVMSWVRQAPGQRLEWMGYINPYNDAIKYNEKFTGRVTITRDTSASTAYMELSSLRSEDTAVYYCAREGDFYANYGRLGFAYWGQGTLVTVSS VL: DIQMTQSPSSLSASVGDRVTITCRASQDITNYLNWYQQKPGKAPKLLIYYTSRLHSGVPSRFSGSGSGTDYTFTISSLQPEDIATYFCQQGDTFPYTFGGGTKVEIK"
  Unit Abbrev: "MFI"
  FACS (MFI): 10300
- Binder: "h140Hm13/h140Lm15 (antibody, V domains shown) VH: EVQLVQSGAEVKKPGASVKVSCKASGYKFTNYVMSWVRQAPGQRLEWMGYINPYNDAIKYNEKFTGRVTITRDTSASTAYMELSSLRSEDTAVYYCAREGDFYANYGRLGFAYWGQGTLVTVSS VL: DIQMTQSPSSLSASVGDRVTITCRASQDITNYLNWYQQKPGKAPKLLIYYTSRLQSGVPSRFSGSGSGTDYTFTISSLQPEDIATYFCQQGDTKPYTFGGGTKVEIK"
  Unit Abbrev: "MFI"
  FACS (MFI): 15700
- Binder: "h140Hm13/h140Lm10 (antibody, V domains shown, also called h140Lmut10; mut10) VH: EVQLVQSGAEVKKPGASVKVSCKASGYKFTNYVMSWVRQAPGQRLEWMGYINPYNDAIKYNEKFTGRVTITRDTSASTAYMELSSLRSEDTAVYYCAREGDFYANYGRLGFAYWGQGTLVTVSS VL: DIQMTQSPSSLSASVGDRVTITCRASQDITNYLNWYQQKPGKAPKLLIYYTSRLHSGVPSRFSGSGSGTDYTFTISSLQPEDIATYFCQQGAGRPYTFGGGTKVEIK"
  Unit Abbrev: "MFI"
  FACS (MFI): 40900

For h140Hm13/h140Lm9 (antibody, V domains shown, also called h140Lmut9; mut9) VH: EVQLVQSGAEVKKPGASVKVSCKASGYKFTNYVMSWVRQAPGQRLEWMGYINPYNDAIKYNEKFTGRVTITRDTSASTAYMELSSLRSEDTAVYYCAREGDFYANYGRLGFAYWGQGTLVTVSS VL: DIQMTQSPSSLSASVGDRVTITCRASQDITNYLNWYQQKPGKAPKLLIYYTSRLHSGVPSRFSGSGSGTDYTFTISSLQPEDIATYFCQQGAGRPRTFGGGTKVEIK the binder record lists FACS (MFI) as 34600

For h140Hm13/h140Lm12 (antibody, V domains shown) VH: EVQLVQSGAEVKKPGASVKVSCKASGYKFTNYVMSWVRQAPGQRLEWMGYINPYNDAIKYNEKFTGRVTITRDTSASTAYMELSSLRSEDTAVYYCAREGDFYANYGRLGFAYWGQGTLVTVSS VL: DIQMTQSPSSLSASVGDRVTITCRASQDITNYLNWYQQKPGKAPKLLIYYTSRLQSGVPSRFSGSGSGTDYTFTISSLQPEDIATYFCQQGDTRPYTFGGGTKVEIK the binder record lists FACS (MFI) as 26400

For h140Hm13/h140Lm14 (antibody, V domains shown) VH: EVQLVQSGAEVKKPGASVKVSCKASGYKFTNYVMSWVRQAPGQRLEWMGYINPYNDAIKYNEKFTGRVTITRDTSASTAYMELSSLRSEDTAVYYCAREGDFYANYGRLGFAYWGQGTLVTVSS VL: DIQMTQSPSSLSASVGDRVTITCRASQDITNYLNWYQQKPGKAPKLLIYYTSRLQSGVPSRFSGSGSGTDYTFTISSLQPEDIATYFCQQGDTYPYTFGGGTKVEIK the binder record lists FACS (MFI) as 7520
